Kindly state growth for each of the entries shown.
Test system: K-562 leukemia
protocol: NCI-60 one-dose screen, 48 h (100 = growth as untreated, 0 = no growth, -100 = all killed)
runParameters: 10 µM unless noted
Compounds without any hit were thinned out: in the full panel of roughly 83,000, 20% have a hit.
Answers are plain numbers, in %.

compound | recordedValue
O=C(c1ccncc1)N1N=C(c2ccc(Cl)cc2)CC1c1c[nH]c2ccccc12 (stereo unspecified) | 88.3
COc1cccc(-c2nc3sccn3c2-c2ccnc(NCCCNS(=O)(=O)c3ccccc3)n2)c1 | 25.5
CCSc1nnc(Nc2ccc(C(C)C)cc2)s1 | 51.8
CSc1nc(-c2cc3ccccc3o2)cc(-c2ccc(Cl)cc2)c1C#N | 63.4

Give measured growth for every item shown.
1. Cc1cc2c(C(C)C)c(O)c(O)c(C=NCCCCCCC(=O)O)c2c(O)c1-c1c(C)cc2c(C(C)C)c(O)c(O)c(C=NCCCCCCC(=O)O)c2c1O
2. O=C1NC(Cc2c[nH]c3ccccc23)C(=O)N1Cc1ccc(Cl)cc1 (stereo unspecified)

[12.6, 83.9]

---

Tested on: MALME-3M melanoma
protocol: NCI-60 one-dose screen, 48 h (100 = growth as untreated, 0 = no growth, -100 = all killed)
runParameters: 10 µM unless noted
Experimental: Cells are grown in 96 well plates and exposed to the test compound for 48 hours. Compounds are tested at a single concentration, which is 10^-5 M for most compounds. The reported endpoint is percent growth (GI% or GIPRCNT), where numbers from 0 - 100% represent growth inhibition, and numbers from -100% - 0 represent cell death. For example, a value of 40 represents 60% growth inhibition. A value of 0 means no net growth occurred over the course of the experiment. […]
About 83,000 compounds went through this panel and 20% of them were active in at least one assay; those are over-represented in the sample as a whole.
Each record is given true (1) if its reported growth is strictly below 90%. Records at or above 90% are given false (0).

molSmiles | answerLabel
O=C(CSc1nc(-c2ccc(Cl)cc2)cn1-c1ccc(Cl)cc1)c1ccc(Br)cc1 | false (0)
Cc1ccc2nc(-c3c(CCCO)noc3N)[nH]c(=O)c2c1 | false (0)
COc1ccc(NC(=S)/N=c2\oc3c(OC)cccc3cc2-c2cc3ccccc3[nH]2)cc1 | true (1)
COc1cc(CNC(=O)CCSc2nc3ccccc3c(=O)n2Cc2cc(OC)c(OC)c(OC)c2)cc(OC)c1OC | true (1)

As a next step, examine the compound that follows.
Lab note: growth threshold 90%. Does this compound come in strictly under it? "COc1cc(-c2cc(/C=C3\CCCCC3=O)[nH]n2)cc(OC)c1OC" false (0)

---

Tested on: PC-3 prostate
protocol: NCI-60 one-dose screen, 48 h (100 = growth as untreated, 0 = no growth, -100 = all killed)
runParameters: 10 µM unless noted
Compounds without any hit were thinned out: in the full panel of roughly 83,000, 20% have a hit. Activity calls are given as the source filed them. Rule for the calls: active = growth percent below 10; inactive = the rest.
Kindly state growth for each of the entries shown.

Past entries and their recorded results:
compound | growth
O=C1OC(c2ccccc2)=N/C1=C\c1ccc([N+](=O)[O-])cc1 | 94.4% (inactive)
O=S(=O)(NCCCNc1nccc(-c2c(-c3ccccc3)nc3sccn23)n1)c1ccc(F)cc1 | 60.6% (inactive)
COc1cc(OC)c(C(=O)/C=C/c2ccc(C(F)(F)F)cc2)c(OC)c1 | 54.5% (inactive)

Give measured growth for every item shown.
1. COc1ccc(/C=c2\sc3n(c2=O)C2C(NN=3)N(C)C(=O)N2C)cc1 (stereo unspecified)
2. COc1ccc(C2CC(=O)Nc3c2c(C)nn3-c2nc3ccccc3[nH]2)cc1OC (stereo unspecified)
3. CN(C)c1nc(N)c(N=O)c(N)n1
4. O=c1[nH]c2ccccc2cc1-c1nnc(Cc2ccccc2)o1

25.4% (inactive)
75.4% (inactive)
99.4% (inactive)
65.5% (inactive)

Give measured growth for every item shown.
1. CCC1CCc2nc3sc(C(=O)Nc4ccccc4C)c(N)c3cc2C1 (stereo unspecified)
2. CCSc1nnc(NC(=O)COc2ccc(Cl)cc2C)s1
3. CC(C(=O)n1cc(-c2ccccc2)c(-c2ccccc2)c1)c1ccccc1 (stereo unspecified)
4. C=C1C(=O)O[C@H]2[C@H]1CC/C(COC(=O)NCc1ccc(OC)cc1)=C\CC[C@@]1(C)O[C@@H]21

["26.8% (inactive)", "104% (inactive)", "95.9% (inactive)", "52.9% (inactive)"]

---

System: NCI-H460 lung
protocol: NCI-60 one-dose screen, 48 h (100 = growth as untreated, 0 = no growth, -100 = all killed)
runParameters: 10 µM unless noted
This is part of a sample that, as a whole, favours compounds with a hit. Of some 83,000 tested, about 20% had one in any assay. Activity calls are given as the source filed them. The calls were made as follows: active = growth percent below 10; inactive = the rest.
Kindly state growth for each of the entries shown.

molecule | growth
O=C(COc1ccccc1)N1N=C(c2ccc(Cl)cc2)CC1c1c[nH]c2ccccc12 (stereo unspecified) | 47.9% (inactive)
O=C(CCCn1c2c(sc3ccccc32)c(=O)n2nnc(-c3ccccc3)c12)NCCc1cnc[nH]1 | -93.2% (active)
Nc1c(C(=O)Nc2c(Cl)cccc2Cl)sc2nc3c(cc12)CCCCC3 | 54.9% (inactive)
COc1ccc(C(=O)c2cc(OC)c(OC)c(OC)c2)cc1/C=C/C(=O)c1ccc(O)cc1 | 9.99% (active)
O=C1CCCCN1CCCCC#Cc1ccccc1C#Cc1ccc([N+](=O)[O-])cc1 | 11.5% (inactive)
COc1cc(OC)c(C(=O)/C=C/c2ccc(C(F)(F)F)cc2)c(OC)c1 | 23.1% (inactive)

Give measured growth for every item shown.
1. C=C1C(=O)O[C@H]2[C@H]1CC/C(COC(=O)NCCc1ccc(Br)cc1)=C\CC[C@@]1(C)O[C@@H]21
2. C/C1=C\CCC2(C)OC2CC2CCC(C)(O)C(CC1)C2(C)C (stereo unspecified)
3. CC(C)(C)c1cn2cccc(C(=O)N3CCN(CC(=O)Nc4ccc(Cl)cc4C(=O)c4ccccc4Cl)CC3)c2n1
4. N#CC1=C(N)OC2=C(C(=O)CCC2)C1c1ccco1 (stereo unspecified)
5. COc1cc(C(=O)CCCl)ccc1O
6. COc1ccc(/C=C(\C#N)c2ccc([N+](=O)[O-])cc2)c2ccccc12

61.2% (inactive)
106% (inactive)
49.8% (inactive)
110% (inactive)
106% (inactive)
64.6% (inactive)

Give measured growth for every item shown.
1. COc1ccc(OC)c(C(=O)c2oc3ccc(Br)cc3c2N)c1
2. COc1ccc(NC(=S)/N=c2\oc3c(OC)cccc3cc2-c2cc3ccccc3[nH]2)cc1
3. N#Cc1ccc(NC(=O)c2ccc3cccnc3c2O)cc1
4. COc1cc(-n2nc(C(=O)Nc3ccc(C(=O)O)cc3)nc2-c2ccccc2)cc(OC)c1OC
5. CC(=O)C1CCC(C)=CC1=O (stereo unspecified)
6. NC(=O)c1c(NC(=O)c2ccc(OCC3CCCO3)cc2)sc2c1CCCC2 (stereo unspecified)
7. CC/C=C\C[C@H]1C/C=C2/C(=O)C(Cl)=C[C@@H]2C/C=C\CCCC(=O)O1

1. 8.36% (active)
2. 69.8% (inactive)
3. 4.71% (active)
4. 115% (inactive)
5. 106% (inactive)
6. 106% (inactive)
7. -43% (active)

Give measured growth for every item shown.
1. CC/C=C\C/C=C\C[C@H](O)C/C=C1/C(=O)C=C[C@H]1C/C=C\CCC(=O)OC
2. CCOC(=O)C1=C(C)NC(=O)NC1c1ccc(OCC(=O)N/N=C/c2ccc(Cl)cc2)cc1 (stereo unspecified)
3. CCN1C(=O)N(CC)C2C1NN=c1s/c(=C3\C(=O)N(C4CCCC4)c4ccccc43)c(=O)n12 (stereo unspecified)
4. O=C(CN1CCN(c2cc3c(cc2F)c(=O)c(C(=O)O)cn3C2CC2)CC1)Nc1ccc(C(=O)/C=C/c2ccc(Cl)cc2)cc1
5. COc1cc(C2C=C(C)N=C3SC=C(C)N32)cc(OC)c1OC (stereo unspecified)
6. CCC(C)NCC(=O)O (stereo unspecified)
7. COC(=O)c1ccc(C)cc1

1: 90.2% [8.25 µM] (inactive); 2: 101% (inactive); 3: -1.48% (active); 4: 112% (inactive); 5: -39% (active); 6: 108% (inactive); 7: 106% (inactive)

---

System: A498 renal
protocol: NCI-60 one-dose screen, 48 h
runParameters: 10 µM unless noted
Compounds without any hit were thinned out: in the full panel of roughly 83,000, 20% have a hit. Calls of active or inactive are those of the source. How the source made its calls: active means growth percent below 10; inactive means the rest.
Outcome field: choose from active, inactive

Use the examples below as a reference point.
compound | answerLabel
CCN(Cc1ccc(CN(CC)C(=O)C(Br)Br)cc1)C(=O)C(Br)Br | inactive
CC(C)CCC[C@@H](C)[C@H]1CC[C@H]2[C@@H]3CC[C@H]4C/C(=N/O)CC[C@]4(C)[C@H]3CC[C@]12C | inactive
CCN(CC)S(=O)(=O)c1ccc2[nH]c(=O)cc(C(=O)Nc3ccc(OC)cc3OC)c2c1 | inactive

Write down the call the test reported for this compound. Item: "ClC1=C(Cl)C(Cl)=C(Cl)C1=Cc1ccc(Cl)cc1Cl" active

Write down the call the test reported for this compound. Item: COc1cc(/C=C2\CCCC3=C2N=C2SC(C)=NN2C3c2cc(OC)c(OC)c(OC)c2)cc(OC)c1OC (configuration not stated) active

Write down the call the test reported for this compound. Item: "OCc1c(-c2ccccc2)nc2sccn12" inactive

Reference source for all entries: PubChem BioAssay (NCI)
